The entries below come with measured NF-kB SEAP reporter activity values attached.
Tested on: RAW-Dual
measurement description: NF-kB SEAP reporter activity, fold change vs agonist alone; cytotoxicity flag (confluency mask): not cytotoxic; higher = enhanced NF-kB activity
experimental parameters: agonist: ODN 1826 (TLR9) 0.5 ug/mL
In all, about 2,900 compounds were measured (“NF-kB SEAP reporter activity, fold change vs agonist alone”: median about 0.99, highest 2% from about 2.6 on). This excerpt belongs to a sample that is enriched for the highest values.

>  <compound>
CC(C)(C)c1[nH]cnc1C=c1[nH]c(=O)c(=Cc2ccccc2)[nH]c1=O (library stock concentration (final ~1000-fold dilution): 10 mM)

>  <NF-kB SEAP reporter activity>
3.37

$$$$
>  <compound>
OCc1ccccc1OC1OC(CO)C(O)C(O)C1O (stereo unspecified) (library stock concentration (final ~1000-fold dilution): 10 mM)

>  <NF-kB SEAP reporter activity>
1.08

$$$$
>  <compound>
COC(=O)C1=C(C)NC(C)=C(C(=O)OC)C1c1ccccc1[N+](=O)[O-] (library stock concentration (final ~1000-fold dilution): 10 mM)

>  <NF-kB SEAP reporter activity>
1.42

$$$$
>  <compound>
CCCC(=O)OCOC(=O)C1=C(C)NC(C)=C(C(=O)OC)C1c1cccc(Cl)c1Cl (stereo unspecified) (library stock concentration (final ~1000-fold dilution): 10 mM)

>  <NF-kB SEAP reporter activity>
1.19

$$$$
>  <compound>
O=C(c1ccccc1)C(O)O (library stock concentration (final ~1000-fold dilution): 10 mM)

>  <NF-kB SEAP reporter activity>
1.04

$$$$
>  <compound>
CCOc1ccc(Cc2cc(C3OC(CO)C(O)C(O)C3O)ccc2Cl)cc1 (stereo unspecified) (library stock concentration (final ~1000-fold dilution): 10 mM)

>  <NF-kB SEAP reporter activity>
1.2

$$$$
